# STUDY TARGET: human serum albumin (HSA) (Homo sapiens, UniProt P02768 25-609)
# Sequence (P02768 25-609): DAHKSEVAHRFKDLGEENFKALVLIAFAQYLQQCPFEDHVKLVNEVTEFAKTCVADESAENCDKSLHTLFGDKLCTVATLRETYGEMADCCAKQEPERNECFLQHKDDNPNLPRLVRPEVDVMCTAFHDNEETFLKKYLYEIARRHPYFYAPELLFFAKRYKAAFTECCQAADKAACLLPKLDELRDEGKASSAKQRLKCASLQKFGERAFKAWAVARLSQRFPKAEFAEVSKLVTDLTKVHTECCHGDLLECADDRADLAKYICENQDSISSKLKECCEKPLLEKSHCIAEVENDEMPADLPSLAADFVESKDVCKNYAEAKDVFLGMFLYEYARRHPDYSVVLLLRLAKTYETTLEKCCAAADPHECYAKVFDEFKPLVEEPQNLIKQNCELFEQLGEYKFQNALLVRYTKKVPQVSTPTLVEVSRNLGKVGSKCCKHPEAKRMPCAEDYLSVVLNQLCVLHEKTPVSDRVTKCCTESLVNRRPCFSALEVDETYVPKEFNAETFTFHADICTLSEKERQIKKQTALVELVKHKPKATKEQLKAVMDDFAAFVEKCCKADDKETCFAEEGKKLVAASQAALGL
# ASSAY: fluorescence titration (FAM); PBS; 10 uM oligomer; HSA Kd: 10 uM oligomer, PBS, 30 min, 25 C (Methods) or 37 C (Figure S7); HSA EMSA: TA/TAM buffer, 1 h, native 8% PAAG at 37 C; Ku/PARP1 EMSA: 50 mM Tris-HCl pH
# MEASUREMENT PARAMETERS: protein: commercial; label: 5'-FAM; single strand; can form weak hairpin or self-dimers; micelles

{"BINDER": "AGTCTCGACTTGCTATT (ssDNA, triazinyl phosphoramidate with two dodecyl groups at the last internucleotide phosphate (T16*T17)) [FAM-TZD17 (FAM-TZ17)]", "Kd / µM": 1.2}

Value source: paper PMC10747088
